Target: T1, B-cat-Halo (UniProt P35222 1-781)
T1 sequence (looked up): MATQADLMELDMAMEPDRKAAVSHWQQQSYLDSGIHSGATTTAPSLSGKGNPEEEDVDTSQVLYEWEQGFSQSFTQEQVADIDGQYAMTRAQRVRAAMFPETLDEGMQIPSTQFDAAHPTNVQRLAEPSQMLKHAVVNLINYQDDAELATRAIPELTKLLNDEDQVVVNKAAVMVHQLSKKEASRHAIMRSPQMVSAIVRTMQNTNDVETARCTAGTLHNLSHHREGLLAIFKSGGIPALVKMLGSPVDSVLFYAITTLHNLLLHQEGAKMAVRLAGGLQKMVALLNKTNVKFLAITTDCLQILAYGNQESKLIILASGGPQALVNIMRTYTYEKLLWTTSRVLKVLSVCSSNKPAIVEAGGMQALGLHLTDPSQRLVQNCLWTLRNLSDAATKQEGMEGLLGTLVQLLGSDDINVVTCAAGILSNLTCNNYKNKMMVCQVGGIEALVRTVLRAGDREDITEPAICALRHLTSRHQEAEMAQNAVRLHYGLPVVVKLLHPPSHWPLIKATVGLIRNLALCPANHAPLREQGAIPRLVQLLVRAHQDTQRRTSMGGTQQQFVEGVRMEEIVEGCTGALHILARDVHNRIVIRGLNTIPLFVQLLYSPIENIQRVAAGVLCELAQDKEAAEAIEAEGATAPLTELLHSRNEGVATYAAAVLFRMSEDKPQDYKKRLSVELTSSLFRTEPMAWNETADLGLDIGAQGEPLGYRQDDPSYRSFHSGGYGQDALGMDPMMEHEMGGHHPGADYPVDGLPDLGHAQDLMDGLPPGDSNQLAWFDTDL
Experiment: cell-based or functional assay
Starred links: 1 amine or outer side, 2 acyl side, 3 side chain; linkers in the order of their positions; H or OH if unused. Positions of bridges follow the written chain, without caps; N, C: chain ends. Non-standard residues stand in square brackets, D forms with d. Primed or numbered codes have the meaning given here. PyrS2 = (S)-3-amino-1-((pent-4-en-1-yloxy)carbonyl)pyrrolidine-3-carboxylic acid, C=CCCCOC(=O)N1CC[C@@](N[*:1])(C(=O)[*:2])C1; PyrS3 = (S)-3-amino-1-((hex-5-en-1-yloxy)carbonyl)pyrrolidine-3-carboxylic acid, C=CCCCCOC(=O)N1CC[C@@](N[*:1])(C(=O)[*:2])C1; B5(13) = 2-amino-2-(pent-4-en-1-yl)hept-6-enoic acid (two alkene chains), C=CCCCC(CCCC=C)(N[*:1])C(=O)[*:2]; B5(3) = 2,2-bis(4-pentenyl)glycine (stitching residue), C=CCCCC(CCCC=C)(N[*:1])C(=O)[*:2]; Phe(2-Cl) = N[C@@H](Cc1ccccc1Cl)C(=O)O; Phe(2-OMe) = COc1ccccc1C[C@H](N)C(=O)O; 1Nal = N[C@@H](Cc1cccc2ccccc12)C(=O)O; 2Nal = N[C@@H](Cc1ccc2ccccc2c1)C(=O)O; Phe(2-Me) = Cc1ccccc1C[C@H](N)C(=O)O; Bta = N[C@@H](Cc1csc2ccccc12)C(=O)O; αAllylPro = C=CC[C@@]1(C(=O)O)CCCN1; tBuAla = CC(C)(C)C[C@H](N)C(=O)O; 2Thi = N[C@@H](Cc1cccs1)C(=O)O; 3Thi = N[C@@H](Cc1ccsc1)C(=O)O; hLeu = CC(C)CC[C@H](N)C(=O)O

| binder | output_unit | inequality_operator | NanoBRET Abs IC50 |
| --- | --- | --- | --- |
| Ac-[αAllylPro]D[tBuAla][B5(13)]DDAAFN[PyrS3][3Thi][Bta]H-NH2 (staple 1-4, 4-11) [I-775] | µM | > | 20 |
| Ac-[αAllylPro]D[hLeu][B5(3)]DDAAFN[PyrS2][3Thi][Bta]Q-NH2 (staple 1-4, 4-11) [I-787] | µM | = | 30.7 |
| Ac-[αAllylPro]D[tBuAla][B5(13)]DDAAFN[PyrS2][Phe(2-Me)][Bta]H-NH2 (staple 1-4, 4-11) [I-782] | µM | = | 12.2 |
| Ac-[αAllylPro]D[tBuAla][B5(13)]DDAAFN[PyrS2][Phe(2-Cl)][Bta]Q-NH2 (staple 1-4, 4-11) [I-783] | µM | = | 6.2 |
| Ac-[αAllylPro]D[tBuAla][B5(3)]DDAAFN[PyrS2][3Thi][1Nal]H-NH2 (staple 1-4, 4-11) [I-789] | µM | > | 20 |
| Ac-[αAllylPro]D[tBuAla][B5(13)]DDAAFN[PyrS2][Phe(2-OMe)][Bta]H-NH2 (staple 1-4, 4-11) [I-781] | µM | = | 31 |
| Ac-[αAllylPro]D[tBuAla][B5(13)]DDAAFN[PyrS3][3Thi][Bta]H-NH2 (staple 1-4, 4-11) [I-776] | µM | = | 45.7 |
| Ac-[αAllylPro]D[tBuAla][B5(13)]DDAAFN[PyrS2][2Thi][Bta]H-NH2 (staple 1-4, 4-11) [I-779] | µM | = | 18.7 |
| Ac-[αAllylPro]D[tBuAla][B5(13)]DDAAFN[PyrS2][Phe(2-OMe)][Bta]Q-NH2 (staple 1-4, 4-11) [I-780] | µM | = | 20.7 |
| Ac-[αAllylPro]D[tBuAla][B5(13)]DDAAFN[PyrS2][2Thi][Bta]Q-NH2 (staple 1-4, 4-11) [I-778] | µM | = | 11.2 |
| Ac-[αAllylPro]D[tBuAla][B5(3)]DDAAFN[PyrS2][3Thi][2Nal]H-NH2 (staple 1-4, 4-11) [I-790] | µM | > | 20 |
| Ac-[αAllylPro]D[hLeu][B5(3)]DDAAFN[PyrS2][3Thi][Bta]H-NH2 (staple 1-4, 4-11) [I-788] | µM | = | 21.6 |
| Ac-[αAllylPro]D[tBuAla][B5(3)]DDAAFN[PyrS2][3Thi][Bta]-NH2 (staple 1-4, 4-11) [I-785] | µM | = | 21.6 |
| Ac-[αAllylPro]D[tBuAla][B5(3)]DDAAFN[PyrS2][Phe(2-Cl)][Bta]H-NH2 (staple 1-4, 4-11) [I-784] | µM | = | 14.5 |
| Ac-[αAllylPro]D[tBuAla][B5(13)]DDAAFN[PyrS2]F[Bta]H-NH2 (staple 1-4, 4-11) [I-777] | µM | = | 19.8 |
| Ac-[αAllylPro]D[tBuAla][B5(3)]DDAAFN[PyrS2][3Thi]WH-NH2 (staple 1-4, 4-11) [I-792] | µM | > | 20 |
| Ac-[αAllylPro]D[tBuAla][B5(3)]DDAAFN[PyrS2][Bta][Bta]H-NH2 (staple 1-4, 4-11) [I-793] | µM | > | 20 |
| Ac-[αAllylPro]D[tBuAla][B5(3)]DEAAFN[PyrS2][3Thi][Bta]-NH2 (staple 1-4, 4-11) [I-786] | µM | = | 29.3 |
